Source: a protein production outcome set (Wang et al. 2014)

assay: label from the status in PepcDB records
Measurement label: protein production

MPLVSVVMPVYNSAATLGAAVRSVLTQTHGDLELLVTDDQSSDGSMDLLREFAAQDERVLPRSSPERGGAGRARNLAIERARGDYVAFLDSDDMWLPEKTEKQLAFAAEGTAPLTFTSYFKMDADHDGESTDWVPNGRVIRAREHVDYRAMLVQDHIGALTAMYDRNVLGTRLMPEMRKRQDYALWLSIMRDGADARGLAEPLAVYRAHQAGSLSSNKLSLVEYNWALYREHENLSVPRATRALAGAVWQSLRNSRILEHHHHHH	failed
MLTAPPKEAARPTLMPRAQSYKDLTHLPAPTGKIFVSVYNIQDETGQFKPYPASNFSTAVPQSATAMLVTALKDSRWFIPLERQGLQNLLNERKIIRAAQENGTVAINNRIPLQSLTAANIMVEGSIIGYESNVKSGGVGARYFGIGADTQYQLDQIAVNLRVVNVSTGEILSSVNTSKTILSYEVQAGVFRFIDYQRLLEGEVGYTSNEPVMLCLMSAIETGVIFLINDGIDRGLWDLQNKAERQNDILVKYRHMSVPPESLEHHHHHH	failed

---

assay: label from the status in PepcDB records
Measurement label: protein production

MLKKGNEMKAVIVYASVHHGNTKKIEEAMASVISADVIDVTRKIKPDLSGYDVIGFVSGVYFHTFHEGIKKCIEENMSSKGQKVFLVATCGLGYRDYTKGMKDTLAKKDVLCMGSFQCRGWDTYGIFGKIGGIAKKHPNDRDLKEAQEFVLKTVCKTNLEHHHHHH	not failed
MASEMKFAWLLAPDTYWDEKKTFITAALESGIDHIVDTADSGRIKKLGNLTLISPDEDADIVLVGRDGEGDGTLELPETLEYSRDIEMASELSESGRQVAAYVEIRSKAHEELARRLGRVVDYLILVGEDWKIIPLENIIADLQEEDVKLIAAVADVDEARVALETLEHGTDGVLIEPADISQIKDIAALLENIESETYELKPATITRIEPIGSGDRVCVDTCSIMGIGEGMLVGSYSQGLFLVHSESLESEYVASRPFRVNAGPVQAYVMVPGGRTRYLSELETGDEVIIVDRDGRSRSAIVGRVKIEKRPLMLVEAEYEGMKVRTLLQNAETIRLVNDKGEPVSVSELGEGDRVLVYFDESARHFGMAIKETIIEKLEHHHHHH	not failed
MFITFEGIDGSGKTTQSHLLAEYLSEIYGVNNVVLTREPGGTLLNESVRNLLFKAQGLDSLSELLFFIAMRREHFVKIIKPSLMQKKIVICDRFIDSTIAYQGYGQGIDCSLIDQLNDLVIDVYPDITFIIDVDINESLSRSCKNGYEFADMEFYYRVRDGFYDIAKKNPHRCHVITDKSETYDIDDINFVHLEVIKVLQMV	not failed
MNTRNFSLPQLQNLPIEEARIVADALAVHATSRQIDSAASKLAALAEAGLKGDRQAYAAYQQLLYVLSLSDDVATAQTRRWLARAIYRVEERFMPAADLSRALSEEDFQKRLEQEIAAQSRERHPMSQYVFSGSASRAQLQVFLRHQWFRTFRLYRDAADLLVNLTDVDEAAALARYLYGELGEEDEKGSHPRLLAKLLEAIGLEADFQAVSTMPEEIAYLNNRARAFRHAEVGWGLAVFYITELVVPGNHEKLYRALLQAGLSEDQAEYYKVHISLVPPRAKREWQLIARRIPDVQFQNAFLTSLSQHFRVERAYYDAIWEEMQSVK	not failed

---

assay: label from the status in PepcDB records
Measurement label: protein production

MAPVIRRAKEIDLYCLNSLMYKLHDEHHQQCPDLFKTASEIEEEKSIARYLDDPECMVYVAEMDDVIIGFITGHFCELISTVSKLVMMATIDELYIEKEYRREGVAEQLMMRIEQELKDYGVKEIFVEVWDFNKGALEFYNKQGLNEHIHYLRKPLNRLEHHHHHH	not failed
MGIKNDLEIRLQKLQQQGNFKNYLEQYPTDASTAAYFLIEIYNDGNIGGRSVIDAGTGNGILACGSYLLGAESVTAFDIDPDAIETAKRNCGGVNFMVADVSEISGKYDTWIMNPPFGSVVKHSDRAFIDKAFETSMWIYSIGNAKARDFLRREFSARGDVFREEKVYITVPRIYRHHSYDRARIEAVIFGVRNHSF	not failed
MKMIETSLASASAALRDRVDEILAAATREDGCAPLSESFLNGLRRADDGHVHSCVMDSHDQVVGVAARDGDSAEVVVDPAFRRQGYGSFLIRHVVSQGVKNVWAHGDGAGAKAVAKALQLEQTRQLLVMAVEGDRLVESAQLQVPSGFRVLALNEAYESIPDIEQQWLRVNNEAFEWHPEQGGWDSARLAQARDTQWFRESDVLFLIDTAKRTVAGFHWTKRHGDLAEGADGEVYVVGLGSAYRRRGLGDLLIRMGLHHLEYEHARRVILYVEGDNESARRAYDALGFHVVESHVTYSPQSSS	failed
MDVGMPFSGPVSFPLLVIEEELPFRIHNICSETGKFDVVLDSITNMPKYGLKIFAGVRIDMYSILGDESSGRIYTLRKGTLADFNARILAYYDKAQVINADGDTCIKMANEGYSALVGNEISIGKSFRNRMKELGLDLPSCAMASTRRIDEVIEAYEQGIDFIKNNHERAAEIISKKSGYYSEEVMKKIIGIYGHEVTKKRAELVGSRELYSRVVPELNDIEIIG	not failed
MSSPYILVLYYSRHGATAEMARQIARGVEQGGFEARVRTVPAVSTECEAVAPDIPAEGALYATLEDLKNCAGLALGSPTRFGNMASPLKYFLDGTSSLWLTGSLVGKPAAVFTSTASLHGGQETTQLSMLLPLLHHGMLVLGIPYSEPALLETRGGGTPYGASHFAGADGKRSLDEHELTLCRALGKRLAETAGKLGS	not failed
MAKRCALTFKGPMIGNHVSHANNKNKRRLLPNLRSIKIQLDDGTTKRIKVAASTLRTMRKGALEHHHHHH	not failed
MAQEDVTAVATNGAGPVETHLVFTEFKQMLLVEAQKVGDAVTFYKSAFGAIESGHSLYPKRKLDQELPHVLSSELNLAGSSFVVCDVSSLPGFSTAKSEGSGVTFLLGTKDAEAAVAKAVDAGAVKVEVTEAEVELGFKGKVTDPFGVTWIFAEKKTVITDENKEV	not failed
MARMGGKKHLKALVAPKFWPILRKEYKWAVKPSPGPHPIERCFPLLIIVRDILGYAKTAREARKLISEGHFKVDGRVRKNYKYPVGLMDVIEIVDTGETYRVIPVPVKVLGLIEIDKEEAKYKLSRIENKTTVKGGHIQLNLHDGRNVLIKVSDPKNPVEDIYKTLGTLQISIPEQQILNYIPLDEGTLVIISGGRNVGRVGKVVSIHKGIRRHRSIVTIEDKHGNKFQTSLTYVFPIGKEEPLIKLPEGAW	failed

Reported protein production of `MRNTDDYIIFYHLVEQGSFSSAARHMELTKSVVSKRIAKLEQELGVQLLYRTTRTLTLTEAGQSFFVHAKAVYKAVATAEESIVGLGKNLSGNIKITVPTISGELILPGVISEFNDKYPDINIDMELDNRFVDIVNERFDLAIRTGMLPDSSLIARKLVDANWVVCASPKYLAKHGIPKQPIELTKHNCLVYSYQETGAREWAFKAGDKMYQVTVDGNLCTNNSSALRNVALLGQGVIYVPRVLVYEDLKQGSLIQLFKEETAKCLGIYAVYPYTRQQPEKIKIFIDHLYNSFQSQNHRF` : failed

Lab note: measured protein production of `MGNQDTIIETDNGNSDYETPQPTSFPLEHNHFGVMEDGYIKIYEYNESRNEVKLKKEYADDELELEHHHHHH` was not failed

---

assay: label from the status in PepcDB records
Measurement label: protein production

MTLVSVVLPVYQGAPWIRGALDCLAAQTHRPLEILVVDDASSDGTPAVVEDWRARHPDLSVRLIVRPENGGPGVARNDALALARGAYVAFLDADDRCVPWRLARQLARLEAEPGLGSVGAWYDMVDADGTPVAARRLSVTAGEMAWAALIHPPFLLSTLMTRRALCRPGIFAPRHQGEDAPAQRRLLWQAPAAMIEEVLVTYRTDPHRPQDPRMGVAMAEDLAPLTGPLSAAEAWALHDALLAFPNRVTPAAIAAVSGLFTLLGVFRGLRPAWMTRPEYNRLFEGYLDLAAPFLAAHGESLLAPPSPQAPRVAPWMGPWEAEWRAGEARSDRPRPKEIFPPVGGDSPSKLSG	failed
MDRFDAMRAFARVVETGSFTKAADTLHMSKTSVTQLVQQLEARLRVRLLNRTTRKVNATADGAAYYERVRQLLADLEDAETSLSGASATPGGRLRVDVPSPFASTILVPALPAFQARYPDILLHLGVSDREVDLIDENVDCVIRGGQIGNLSLAARHVGDLQLGVYASPGYLARAGVPAHPRELQDAQHRIIGFSWSRARRLFPCAMRRRADERIEVAGRHALLLDEGNAYLAAGLAAMGVIGVPTYMAEAHVERGALIRLFGDWRLDPMPLYIAYPQNRHVSAKLRVFIDWIVELMARHAPVTDAPPPHRSARMPGGPAAIPTDITGA	failed
MSYEAIMLERNGAVGVLTFNRPEVLNAYNRTLAADIITGFNELVADKSVRAIVLTGAGKAFMAGADINMVNGWTKLGNAAKIKEDLRQLVNPNMIEDCPKPTIAAVNGLAFGMGCELAMACDFRIAAEKAQFGQPEVKLGIIPGAGGSQRLRELVGPTRALEMISTGDPIDAQEAYRIGLVNQVVPRDELMEAVNAFAGRLIDKGAVVLDICKKLVYEGGDLPLRGGIDYEQDQFCKILLTADAQEGTLAFLEKRKPVFNKG	failed
MKFVHSETHRRHDPQFFIVRGQITRSTEQPERADRLLAAAQRRGHERVEARDFGEAILAEVHCPRYLDFLKNGYAQWRALPGASQEITPHVHPPREESGYPVSIIGRAGFHIADTSSPMGPHTWEAALAASHSACTAAQLVIEGAPAAYSLSRPPGHHATRDRAGGFCFLNHTAVAAQWLRHHVARVAILDVDVHHGNGTQDIFYERDDVLHVSLHADPAYFYPFFTGYAQETGRGIGAGCNLNLPLPIGTDDEAFLAALRIACRRVLDFKPDVVVVALGLDTYEGDPLNAFRITTPGFARIGQAIAGLALPTVLVQEGGYLSDELGENLATFLDGFCQHHRPTATLR	failed
